The reported measurements were obtained from patent US20250382363A1.

target: pre-existing anti-drug antibodies (ADA) present in human sera; test: pre-existing ADA ELISA, scFv coated, human sera unspiked vs spiked
Quantity Name: No of serum samples >30% inhibition (30% CCP) without SCP (serum samples)
Could you respond with only the numeric value?

PRO3318 (scFv 54-21-H03-sc01_(L12A, T101R, L144A, T146Q)) (scFv, PRO1922 variant; VH substitutions, AHo numbering; also called PRO1922 L12A-T101R-L144A-T146Q) scFv: DIQMTQSPSSLSASVGDRVTITCQASESIYSSLAWYQQKPGKAPKLLIYLASTLASGVPSRFSGSGSGTDFTLTISSLQPEDFATYYCQSTDYTTSTHRNSFGTGTKVTVLGGGGGSGGGGSGGGGSGGGGSEVQLVESGGGAVQPGGSLRLSCAASGFSFSTTYYMCWVRQAPGKGLEWIGCTNTASSVRTYYATWAKGRFTISRDNSKNTVYLQMNSLRAEDRAVYYCARDMGFADYALNLWGQGTAVQVSS :: 0

Data request: // lookup No of serum samples >30% inhibition (30% CCP) without SCP (serum samples) for PRO2946 (scFv 54-21-H03-sc01_(T101S)) (scFv, PRO1922 variant; VH substitution, AHo numbering; also called PRO1922 T101S) scFv: DIQMTQSPSSLSASVGDRVTITCQASESIYSSLAWYQQKPGKAPKLLIYLASTLASGVPSRFSGSGSGTDFTLTISSLQPEDFATYYCQSTDYTTSTHRNSFGTGTKVTVLGGGGGSGGGGSGGGGSGGGGSEVQLVESGGGLVQPGGSLRLSCAASGFSFSTTYYMCWVRQAPGKGLEWIGCTNTASSVRTYYATWAKGRFTISRDNSKNTVYLQMNSLRAEDSAVYYCARDMGFADYALNLWGQGTLVTVSS
Data returned: 9

Data request: // lookup No of serum samples >30% inhibition (30% CCP) without SCP (serum samples) for PRO2952 (scFv 37-20-B03-sc09.1_(T101S)) (scFv, PRO2230 variant; VH substitution, AHo numbering; also called PRO2230 T101S) scFv: DIQMTQSPASLSASVGDRVTITCQASQSIGTYLAWYQQKPGKPPKLLIYRAFILASGVPSRFSGSGSGTDFTLTISSLQPEDFATYYCQSNFYSDSTTIGPNAFGTGTKVTVLGGGGGSGGGGSGGGGSGGGGSEVQLVESGGGLVQPGGSLRLSCAASGFSFNSDYWIYWVRQAPGKGLEWIASIYGGSSGNTQYASWAQGRFTISRDNSKNTVYLQMNSLRAEDSAVYFCARGYVDYGGATDLWGQGTLVTVSS
Data returned: 8

Data request: // lookup No of serum samples >30% inhibition (30% CCP) without SCP (serum samples) for PRO3306 (scFv 37-20-B03-sc09.1_(L12A, T101R, L144A, T146Q)) (scFv, PRO2230 variant; VH substitutions, AHo numbering; also called PRO2230 L12A-T101R-L144A-T146Q) scFv: DIQMTQSPASLSASVGDRVTITCQASQSIGTYLAWYQQKPGKPPKLLIYRAFILASGVPSRFSGSGSGTDFTLTISSLQPEDFATYYCQSNFYSDSTTIGPNAFGTGTKVTVLGGGGGSGGGGSGGGGSGGGGSEVQLVESGGGAVQPGGSLRLSCAASGFSFNSDYWIYWVRQAPGKGLEWIASIYGGSSGNTQYASWAQGRFTISRDNSKNTVYLQMNSLRAEDRAVYFCARGYVDYGGATDLWGQGTAVQVSS
Data returned: 7

Data request: // lookup No of serum samples >30% inhibition (30% CCP) without SCP (serum samples) for PRO2991 (scFv 54-21-H03-sc01_(T101A)) (scFv, PRO1922 variant; VH substitution, AHo numbering; also called PRO1922 T101A) scFv: DIQMTQSPSSLSASVGDRVTITCQASESIYSSLAWYQQKPGKAPKLLIYLASTLASGVPSRFSGSGSGTDFTLTISSLQPEDFATYYCQSTDYTTSTHRNSFGTGTKVTVLGGGGGSGGGGSGGGGSGGGGSEVQLVESGGGLVQPGGSLRLSCAASGFSFSTTYYMCWVRQAPGKGLEWIGCTNTASSVRTYYATWAKGRFTISRDNSKNTVYLQMNSLRAEDAAVYYCARDMGFADYALNLWGQGTLVTVSS
Data returned: 0
